Please provide measured Latent period for searching platform in hidden platform test for the entries that follow.
System: mice with Alzheimer (AD model)
Experiment: Morris water maze detection of behavioral changes in mice with Alzheimer
Type: in vivo
Conditions: 3th Day
Numeric only. Scale: s

Quick check: Latent period for searching platform in hidden platform test on mice with Alzheimer (AD model), item N=C(NCCNc1nonc1/C(=N/O)Nc1ccc(F)c(Br)c1)NS(=O)(=O)c1ccccc1 ? 25.4

Quick check: Latent period for searching platform in hidden platform test on mice with Alzheimer (AD model), item N/C(=N\C(=O)C1CCC1)NCCCNc1nonc1/C(=N/O)Nc1ccc(F)c(Br)c1 ? 20.3

Quick check: Latent period for searching platform in hidden platform test on mice with Alzheimer (AD model), item NS(=O)(=O)NCCNc1nonc1C(=Nc1ccc(F)c(Br)c1)NO [INCB024360, reference compound] ? 38.6

----------
Biological target: human indoleamine 2,3-dioxygenase (Homo sapiens, UniProt P14902)
Sequence (P14902 whole entry): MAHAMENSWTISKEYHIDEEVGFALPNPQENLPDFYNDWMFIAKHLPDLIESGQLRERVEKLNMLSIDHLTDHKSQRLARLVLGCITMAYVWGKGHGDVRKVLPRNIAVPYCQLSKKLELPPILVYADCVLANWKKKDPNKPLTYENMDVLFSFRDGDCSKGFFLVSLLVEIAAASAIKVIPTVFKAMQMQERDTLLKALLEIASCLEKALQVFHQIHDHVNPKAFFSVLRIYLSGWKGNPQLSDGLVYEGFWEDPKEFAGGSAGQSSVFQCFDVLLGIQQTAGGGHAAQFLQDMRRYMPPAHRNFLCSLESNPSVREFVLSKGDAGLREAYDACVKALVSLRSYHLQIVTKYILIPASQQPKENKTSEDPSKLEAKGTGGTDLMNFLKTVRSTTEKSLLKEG
Please provide measured pIC50 for the entries that follow.
Note on pIC50: it is the negative log10 of concentration, concentration in mol/L.

Using the record for N/C(=N\C(=O)C1CCCCC1)NCCCNc1nonc1/C(=N/O)Nc1ccc(F)c(Br)c1 , report its pIC50. 6.84

Using the record for CNC(=N)NCCNc1nonc1/C(=N/O)Nc1ccc(F)c(Br)c1 , report its pIC50. 7.66

Using the record for N/C(=N\C(=O)C1CCCC1)NCCCNc1nonc1/C(=N/O)Nc1ccc(F)c(Br)c1 , report its pIC50. 7.06

Using the record for CC(C)(C)OC(=O)N=C(NCCNc1nonc1/C(=N/O)Nc1ccc(F)c(Br)c1)NC(=O)OC(C)(C)C , report its pIC50. 7.64

----------
Please provide measured pIC50 for the entries that follow.
Target: human indoleamine 2,3-dioxygenase (Homo sapiens, UniProt P14902)
Construct: made in house; host or cells: E. coli
Experiment: Determination of the activity for inhibiting indoleamine 2,3-dioxygenase and IC50
Format: biochemical
Settings: purified human IDO, 200 μM L-tryptophan, 37° C., 60 minutes, pH 6.5
Note on pIC50: it is the negative log10 of concentration, concentration in mol/L.

Using the record for N/C(=N\C(=O)Cc1ccccc1)NCCCNc1nonc1/C(=N/O)Nc1ccc(F)c(Br)c1 , report its pIC50. 7.36

Using the record for COc1ccc(CC(=O)/N=C(\N)NCCCNc2nonc2/C(=N/O)Nc2ccc(F)c(Br)c2)cc1 , report its pIC50. 7.12

Using the record for N/C(=N\C(=O)Cc1ccc(Cl)cc1)NCCCNc1nonc1/C(=N/O)Nc1ccc(F)c(Br)c1 , report its pIC50. 7.25

Using the record for N/C(=N\S(=O)(=O)CC1CCCCC1)NCCNc1nonc1/C(=N/O)Nc1ccc(F)c(Br)c1 , report its pIC50. 7.17

Using the record for N=C(NCCNc1nonc1/C(=N/O)Nc1ccc(F)c(Br)c1)NS(=O)(=O)c1ccccc1 , report its pIC50. 7.24

Using the record for N/C(=N\C(=O)Cc1ccc(F)cc1)NCCCNc1nonc1/C(=N/O)Nc1ccc(F)c(Br)c1 , report its pIC50. 7.21

Using the record for N/C(=N\C(=O)CC1CCCCC1)NCCNc1nonc1/C(=N/O)Nc1ccc(F)c(Br)c1 , report its pIC50. 6.30

Using the record for N/C(=N\C(=O)Cc1ccccc1)NCCNc1nonc1/C(=N/O)Nc1ccc(F)c(Br)c1 , report its pIC50. 6.40
